Parameter hAmylin-R funct. EC50 (pM), tested with HSA: see the listing below.
# system: T1, human amylin 3(a) receptor (human calcitonin receptor co-expressed with RAMP-3) on BHK570/CRE-luc cells (human, UniProt P30988 25-474; O60896 24-148)
# T1 sequence (looked up) 1: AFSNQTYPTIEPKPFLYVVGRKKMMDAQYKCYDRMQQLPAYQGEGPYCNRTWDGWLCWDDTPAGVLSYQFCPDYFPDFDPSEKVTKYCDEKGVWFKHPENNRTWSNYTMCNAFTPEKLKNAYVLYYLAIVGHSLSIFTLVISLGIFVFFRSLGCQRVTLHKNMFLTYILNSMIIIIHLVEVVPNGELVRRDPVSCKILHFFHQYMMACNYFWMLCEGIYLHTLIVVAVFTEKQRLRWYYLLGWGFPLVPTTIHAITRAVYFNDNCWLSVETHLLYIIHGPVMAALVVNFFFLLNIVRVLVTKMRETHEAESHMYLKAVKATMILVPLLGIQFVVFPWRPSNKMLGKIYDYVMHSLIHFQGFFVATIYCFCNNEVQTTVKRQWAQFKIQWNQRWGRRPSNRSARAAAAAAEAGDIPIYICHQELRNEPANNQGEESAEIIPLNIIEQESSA
# T1 sequence (looked up) 2: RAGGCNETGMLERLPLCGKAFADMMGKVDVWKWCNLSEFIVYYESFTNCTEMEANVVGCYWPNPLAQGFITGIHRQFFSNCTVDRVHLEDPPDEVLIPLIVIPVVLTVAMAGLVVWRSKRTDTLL
# assayRemarks: cell-based or functional assay
Numbered stars: 1 amine (or outer) side, 2 acyl side, 3 side chain; on linkers, the order of the positions; unused ones are H or OH. Side chains are listed from the residue outwards. * marks the point of attachment. C20 diacid = O=C(O)CCCCCCCCCCCCCCCCCCC(=O)*; C18 diacid = O=C(O)CCCCCCCCCCCCCCCCC(=O)*; C16 diacid = O=C(O)CCCCCCCCCCCCCCC(=O)*; γGlu = O=C(O)[C@H](CCC(=O)[*:2])N[*:1]; C14 diacid = O=C(O)CCCCCCCCCCCCC(=O)*; AEEA = NCCOCCOCC(=O)O
observedProperty: hAmylin-R funct. EC50 (pM), tested with HSA

binder | outputUnit | assayValue
{C18 diacid-γGlu}-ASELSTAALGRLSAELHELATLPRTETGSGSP-NH2 [[N-terminal(C18 diacid-gGlu), des1, 30S, 31G]mimylin] | pM | 26
{C14 diacid}-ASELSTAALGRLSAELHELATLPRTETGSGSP-NH2 [[N-terminal(C14 diacid), des1, 30S, 31G]mimylin] | pM | 6
{C20 diacid-γGlu}-ASGLSTATLGRLSQELHELQTYPRTETGSGTY-NH2 [[N-terminal(C20 diacid-gGlu), des1, 4G, 9T, 15Q, 21Q, 23Y, 30S, 31G, 32T, 33Y]mimylin] | pM | 122
{C20 diacid-γGlu-AEEA}-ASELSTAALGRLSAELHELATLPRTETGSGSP-NH2 [[N-terminal(C20 diacid-gGlu-OEG), des1, 30S, 31G]mimylin] | pM | 73
{C16 diacid}-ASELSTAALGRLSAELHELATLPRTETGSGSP-NH2 [[N-terminal(C16 diacid), des1, 30S, 31G]mimylin] | pM | 4
Ac-ASELSTAALGRLSAELHK([γGlu-C20 diacid])LATLPRTETGSGSP-NH2 [[N-terminal(acetyl), des1, 19K(C20 diacid-gGlu), 30S, 31G]mimylin] | pM | 47
{C20 diacid}-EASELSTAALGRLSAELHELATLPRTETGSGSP-NH2 [[N-terminal(C20 diacid), 30S, 31G]mimylin] | pM | 61
Ac-ASK([γGlu-C20 diacid])LSTAALGRLSAELHELATLPRTETGSGSP-NH2 [[N-terminal(acetyl), des1, 4K(C20 diacid-gGlu), 30S, 31G]mimylin] | pM | 72
{C20 diacid-γGlu-AEEA-AEEA}-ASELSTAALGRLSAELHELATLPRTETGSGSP-NH2 [[N-terminal(C20 diacid-gGlu-2xOEG), des1, 30S, 31G]mimylin] | pM | 67
{C20 diacid-γGlu}-ASGLSTAALGRLSAELHELATYPRTETGSGSP-NH2 [[N-terminal(C20 diacid-gGlu), des1, 4G, 23Y, 30S, 31G]mimylin] | pM | 71
{C20 diacid-γGlu-AEEA-AEEA-AEEA}-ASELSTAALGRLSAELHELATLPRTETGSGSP-NH2 [[N-terminal(C20 diacid-gGlu-3xOEG), des1, 30S, 31G]mimylin] | pM | 68
